# system: Btk (Homo sapiens (Human))
# Sequence (Q06187 whole entry): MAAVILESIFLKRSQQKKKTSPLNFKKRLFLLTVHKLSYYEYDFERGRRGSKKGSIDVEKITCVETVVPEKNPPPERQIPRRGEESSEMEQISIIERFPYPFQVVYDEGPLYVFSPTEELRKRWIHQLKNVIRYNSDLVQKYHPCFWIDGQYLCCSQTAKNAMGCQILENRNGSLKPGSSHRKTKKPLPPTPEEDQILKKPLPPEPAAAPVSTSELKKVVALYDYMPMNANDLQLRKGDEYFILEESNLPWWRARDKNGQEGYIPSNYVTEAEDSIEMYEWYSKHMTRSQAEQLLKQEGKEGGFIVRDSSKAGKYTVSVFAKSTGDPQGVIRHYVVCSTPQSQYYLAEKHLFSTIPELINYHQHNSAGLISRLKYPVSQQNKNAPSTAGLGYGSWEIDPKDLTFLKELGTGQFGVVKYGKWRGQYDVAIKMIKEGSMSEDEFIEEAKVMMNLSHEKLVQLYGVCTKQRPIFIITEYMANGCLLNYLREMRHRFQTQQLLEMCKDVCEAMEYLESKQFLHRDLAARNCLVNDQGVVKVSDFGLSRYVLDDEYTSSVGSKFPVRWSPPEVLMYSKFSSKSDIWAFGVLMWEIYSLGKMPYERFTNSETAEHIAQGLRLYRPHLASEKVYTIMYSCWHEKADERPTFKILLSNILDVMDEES
# assay: Btk acellular kinase assay (TR-FRET)
# protocol conditions: read-out: Btk IC50; acellular TR-FRET kinase assay, [ATP]=Km
measurement label: IC50
Note to self: number, then unit, no commentary.

Btk (Homo sapiens (Human)) / IC50 / CN(C)C/C=C/C(=O)N1CCC[C@@H](n2nc(-c3ccc(Oc4ccccc4)cc3)c3c(N)ncnc32)C1 : value?
2.5 nM

Source of measurements: patent US9133201B2
